This collection of values is drawn from PubChem BioAssay (NCI).

Provide the recorded TGI for the entries that follow.
Tested on: HOP-62 NSCLC
assay: NCI tumour cell line growth inhibition, 48 h

Fill blank: measured TGI of the compound `O=C(/C=C/c1ccc(Oc2cc(C(=O)/C=C/c3ccc(O)cc3)c(O)cc2O)cc1)c1ccc(O)cc1O` is ____.
15.5 µM

Here is the next compound: `O=S(=O)(/C=C/C(=C/c1ccccc1)S(=O)(=O)c1ccccc1)c1ccccc1`
3.5 µM

Here is the next compound: CC12C=CC(=O)C=C1CCC1C3CCC(O)(C(=O)CO)C3(C)CC(O)C12F (stereo unspecified)
> 100 µM

Here is the next compound: COC(=O)[C@@]1(C(C)CC(=O)O)CCCCC1=O (stereo partly specified)
> 100 µM

Here is the next compound: `N#Cc1ccc(C=NC23CC4CC(CC(C4)C2)C3)cc1`
> 100 µM

Here is the next compound: `Cc1cc(C)nc(NS(=O)(=O)c2ccc(NC(=O)c3cccc4c(Nc5ccc(S(=O)(=O)Nc6cc(C)on6)cc5)c5ccccc5nc34)cc2)n1`
45.4 µM

Here is the next compound: CCOP1(=O)C=C(C)C(Cl)=C(C)C1 (stereo unspecified)
> 100 µM

Here is the next compound: `COC(=O)c1cncc(/C=C/c2c(C)cc(O)cc2C)c1`
> 20.5 µM

Here is the next compound: CC1(C)CNCC(C)(OCc2ccccc2)C(=O)NC(C)(C)CNCC(C)(OCc2ccccc2)C(=O)N1 (stereo unspecified)
> 10 µM

Here is the next compound: `CCOC(=O)C1(C(=O)OCC)[C@@H](c2ccccc2)C2=NO[C@@H]3CCC[C@H]1[C@H]23`
> 100 µM

Here is the next compound: `CSc1nc2sc3c(c2c(=O)n1-c1ccc(C(C)C)cc1)CCC(=O)C3`
4.05 µM

Here is the next compound: N#CC1=C(/N=C/c2ccccc2)Oc2c(ccc3ccccc23)C1c1ccccc1 (stereo unspecified)
> 100 µM

Here is the next compound: O=c1[nH]cc(F)c(=O)n1C1OC(CO)C(O)C1O (stereo unspecified)
> 100 µM

Here is the next compound: `CCc1cccc(C)c1NC(=O)c1sc2nc3c(cc2c1N)C(=O)CCC3`
> 100 µM

Here is the next compound: O=C1c2sccc2-c2cccc3cccc1c23 (tested in a mixture with another compound)
> 100 µM

Here is the next compound: COc1ccc(/C=C2\CCC(C)(CN(C)C)C2=O)cc1OC (stereo unspecified)
> 100 µM

Here is the next compound: `C[CH2][Sn]([CH2]C)([O]C(=O)c1ccccc1OC)[O][Sn]([CH2]C)([CH2]C)[O]C(=O)c1ccccc1OC`
> 100 µM

Here is the next compound: OCCNC1c2cc(Cl)ccc2-c2c(Cl)cc(Cl)cc21 (stereo unspecified)
> 100 µM

Here is the next compound: `COC(=O)CCCCC(=O)c1c(C)[nH]c(/C=C2\N=C(c3ccc[nH]3)C=C2OC)c1C`
1.87 µM

Here is the next compound: Cc1ccccc1NC(=O)C(=O)C(C#N)c1ccccc1C (stereo unspecified)
> 100 µM

Here is the next compound: NC1CC(=O)c2c1sc(Cl)c2Cl (stereo unspecified)
> 100 µM

====

System: HS 578T breast
assay: NCI tumour cell line growth inhibition, 48 h; in the data active = GI50 below about 0.43 µM; inactive = the rest
// one of active, inactive, no free text

// param item: `NS(=O)(=O)c1ccc(-c2cc3ccncc3cc2OCc2ccccc2)cc1` ; yields the recorded call
inactive

Here is the next compound: `Cn1cc(C2=C(c3cccc(OC[C@@H](O)CO)c3)C(=O)NC2=O)c2ccccc21`
inactive

Here is the next compound: `CC(=O)NCc1cccc(C#Cc2cncnc2Nc2ccc(OCc3cccc(F)c3)c(Cl)c2)c1`
inactive

Here is the next compound: `COc1ccc(-c2nc(/C=C3\SC(=NCc4ccccc4)NC3=O)c3ccccn23)cc1`
inactive

Here is the next compound: `Cc1cc(C)nc(SC2=C(Nc3cc(Cl)ccc3O)C(=O)N(Cc3ccccc3)C2=O)n1`
inactive

Here is the next compound: `C[C@]12CC[C@@H]3c4cc(OC(F)F)c(OS(N)(=O)=O)cc4CC[C@H]3[C@@H]1CC[C@@H]2O`
active

====

Tested on: LXFL 529 NSCLC
assay: NCI tumour cell line growth inhibition, 48 h
reportedMetric: TGI

Fill blank: measured TGI of the compound Nc1[nH]c(=O)nc2c1cnn2C1CCCCO1 (stereo unspecified) is ____.
> 100 µM

Here is the next compound: `CN(C)C(=NCc1ccccc1)NC#N`
> 100 µM

Here is the next compound: CC12C=CC(=O)C=C1CCC1C3CCC(O)(C(=O)CO)C3(C)CC(O)C12F (stereo unspecified)
> 100 µM

Here is the next compound: `Nc1c([N+](=O)[O-])nc(Cl)c2nncn12`
> 100 µM

Here is the next compound: Cc1ccc(NC(=O)CC2C(=O)Nc3ccccc3S2(=O)=O)c(C)c1 (stereo unspecified)
41 µM

Here is the next compound: `CC1(C)CC(=O)C(/C(=N/NC(=S)NN)C(=O)Nc2nc3ccc([N+](=O)[O-])cc3s2)C(=O)C1`
> 100 µM

====

System: SF-539 CNS
assay: NCI tumour cell line growth inhibition, 48 h
reportedMetric: TGI (µM)
Dear colleague, please return just the value in µM, with no unit written.

Fill blank: measured TGI of the compound `O=C(/C=C/c1ccc(Oc2cc(C(=O)/C=C/c3ccc(O)cc3)c(O)cc2O)cc1)c1ccc(O)cc1O` is ____.
6.1

Here is the next compound: `COC(=O)[C@H]1CCCN1C(=O)[C@H]1CCCN1C(=O)[C@@H](Cc1c[nH]c2ccccc12)NC(=S)Nc1cc(C(F)(F)F)cc(C(F)(F)F)c1`
3.61

Here is the next compound: CCCCCCCC1(N=[N+]=[N-])C(=O)Nc2ccccc2C1=O (centres undefined)
29.6

Here is the next compound: CCOP1(=O)C=C(C)C(Cl)=C(C)C1 (centres undefined)
59.5

Here is the next compound: COc1ccc(Oc2cccc(C3C4C(=O)N(c5ccc(C)c(Cl)c5)C(=O)C4ON3C(C(N)=O)c3ccccc3)c2)cc1 (centres undefined)
21.8

Here is the next compound: CCC1OC2C(CC=C(C)C)=C3OC(C)(O)C(C)(CC)C(OC(C)=O)C3=C3OC(=O)C=C1C32 (centres undefined)
40.9

Here is the next compound: COc1ncnc(NS(=O)(=O)c2ccc(N=C3C(=O)N(CN4CCN(c5c(F)cc6c(=O)c(C(=O)O)cn(C7CC7)c6c5OC)CC4C)c4ccc(Br)cc43)cc2)c1OC (centres undefined)
22.1

Here is the next compound: Cc1ccc(NC(=O)CC2C(=O)Nc3ccccc3S2(=O)=O)c(C)c1 (centres undefined)
30.8

Here is the next compound: `CCN(CC)CCCCCCNc1cc(OC)cc2cccnc12`
3.53

Here is the next compound: `C=CCN1CC(=O)N2[C@@H](Cc3ccc(O)cc3F)C(=O)N(Cc3cccc(N4CC(N5CCN(CC)CC5)C4)n3)C[C@@H]2N1C(=O)NCc1ccccc1`
0.288

Here is the next compound: `O=C(c1cccs1)N(C(=S)OCCOc1ccccc1)c1ccccc1`
58

Here is the next compound: `CCCCCCNC(=O)Oc1ccc(/C(=C(\C)c2ccc(Cl)cc2)c2ccc(OCCN3CCCCC3)cc2)cc1`
8.55

Here is the next compound: CCOC(=O)C(C(=O)OCC)=C1NC2(c3ccccc3Nc3ccccc32)C(C#N)S1 (centres undefined)
23

====

Provide the recorded TGI for the entries that follow.
System: MDA-MB-231 breast
assay: NCI tumour cell line growth inhibition, 48 h

Fill blank: measured TGI of the molecule CCOP1(=O)CC(C)=C(Cl)C(O)C1 (stereo not drawn) is ____.
> 100 µM

Here is the next molecule: O=C1c2sccc2-c2cccc3cccc1c23 (tested in a mixture with another compound)
54.3 µM

Here is the next molecule: COC(=O)c1cc2c(cc1Cl)SC1=NN(C)C(N(C)C)N1S2(=O)=O (stereo not drawn)
> 100 µM

Here is the next molecule: `CC1=NN(c2nc(N)nc(/C(C#N)=C\c3csc([N+](=O)[O-])c3)n2)C(C)(C)C1`
64 µM

Here is the next molecule: `Cc1cc(C)nc(SC2=C(Nc3cc(Cl)ccc3O)C(=O)N(Cc3ccccc3)C2=O)n1`
48 µM

Here is the next molecule: CCOC(=O)C(=CNc1ccc(NC2=NCC(C)S2)cc1)C(=O)OCC (stereo not drawn)
> 100 µM

Here is the next molecule: `COc1cc2c(cc1OCCCCN1CCN(C(=S)SCCC(C#N)(c3ccccc3)c3ccccc3)CC1)N=C[C@@H]1CCCN1C2=O`
4.73 µM

Here is the next molecule: `Cc1ccc(NC(=O)c2cc(S(=O)(=O)Nc3n[nH]c(=O)[nH]3)c(SSc3cc(Cl)c(C(=O)Nc4ccc(C)cc4)cc3S(=O)(=O)Nc3n[nH]c(=O)[nH]3)cc2Cl)cc1`
> 100 µM

Here is the next molecule: `c1ccc(CCc2cccnc2)nc1`
> 100 µM

Here is the next molecule: `CCCCc1ccc(-n2sc3ncc(C)cc3c2=O)cc1`
44.5 µM

Here is the next molecule: `O=[N+]([O-])c1ccc(C(=S)Nc2ccccc2)o1`
8.06 µM

Here is the next molecule: `O=[N+]([O-])c1ccc(-c2nc3ccc(Cl)cc3[nH]2)cc1`
> 100 µM

Here is the next molecule: NC1CC(=O)c2c1sc(Cl)c2Cl (stereo not drawn)
> 100 µM

Here is the next molecule: `COc1ccc(/C=N/n2c(C)n[nH]c2=O)c(OC)c1`
> 100 µM

Here is the next molecule: `CC(C)(O)CNc1nc(Nc2ccnc(C(F)(F)F)c2)nc(-c2cccc(C(F)(F)F)n2)n1`
45.6 µM

Here is the next molecule: `O=[N+]([O-])c1ccc(N2CCOCC2)c2c1no[n+]2[O-]`
15.6 µM

Here is the next molecule: `c1ccc2c(c1)Nc1ccncc1S2`
> 100 µM

Here is the next molecule: `COC(=O)c1ccc2c(c1)S/C(=C/c1ccc3ccc4cccc5ccc1c3c45)S2`
> 100 µM

Here is the next molecule: `N#CCCN1C/C(=C/c2ccc(Cl)cc2)C(=O)/C(=C/c2ccc(Cl)cc2)C1`
7.44 µM

Here is the next molecule: `Cc1cc(N(CCCNc2ccnc3cc(Cl)ccc23)Cc2ccco2)nc(N2CCN(C)CC2)n1`
8.72 µM

Here is the next molecule: `CON(C)c1nc(N(C)OC)nc(N(C)OC)n1`
> 10 µM

Here is the next molecule: `Nc1nc(Nc2ccccc2)c2[nH]cnc2n1`
> 100 µM

Here is the next molecule: O=C(CC1(O)C(=O)N(Cc2ccccc2)c2ccccc21)c1ccc(C(=O)NCC2CCC3(CC2)OOC2(CCCCC2)OO3)cc1 (stereo not drawn)
2.95 µM

Here is the next molecule: `COc1cc2nc(-c3cc(F)ccc3O)nc(N[C@@H]3CNC[C@H]3C(C)(C)O)c2cc1OC`
2.8 µM

Here is the next molecule: COc1ccc(Oc2cccc(C3C4C(=O)N(c5ccc(C)c(Cl)c5)C(=O)C4ON3C(C(N)=O)c3ccccc3)c2)cc1 (stereo not drawn)
> 50 µM

Here is the next molecule: N#CC1=C(/N=C/c2ccccc2)Oc2c(ccc3ccccc23)C1c1ccccc1 (stereo not drawn)
20.5 µM

Here is the next molecule: `CC(C)(Br)C(=O)C(Br)Br`
10 µM

Here is the next molecule: `Cc1c(-c2ccccc2)[nH]c2cc(Cl)ccc2c1=O`
> 100 µM

Here is the next molecule: `CC(C)(C)C1=CC(C)(n2[nH]c(=O)n(-c3ccccc3)c2=O)C=C(C(C)(C)C)C1=O`
> 100 µM

Here is the next molecule: `c1cc2nnc1SCCCSc1ccc(nn1)SCCCS2`
> 100 µM

Here is the next molecule: `CC(=O)NCc1cccc(C#Cc2cncnc2Nc2ccc(OCc3cccc(F)c3)c(Cl)c2)c1`
> 25 µM

Here is the next molecule: `O=C(N/N=C/c1ccc([N+](=O)[O-])cc1)Nc1ccc(C(=O)O)cc1`
> 100 µM

Here is the next molecule: Cc1cccc2c3c(sc12)C(c1ccc(Cl)cc1)C(C#N)=C(N)O3 (stereo not drawn)
7.74 µM

Here is the next molecule: CC(=O)OCC(=O)O[C@@H]1[C@H]2[C@@H](OC(=O)c3ccccc3)[C@@H](C)C[C@]2(O)[C@H](OC(C)=O)[C@@]2(C)C(OC(C)=O)[C@]1(OC(C)=O)C[C@H]1C(=O)C(C)(C)C[C@@H]12 (stereo partly drawn)
> 50 µM

Here is the next molecule: `NC(=O)C(=CNC(=S)Nc1ccccc1)C(N)=O`
> 100 µM

Here is the next molecule: C[N+](C)(C)c1ncnc2c1ncn2C1CC(O)C(CO)O1 (stereo not drawn)
> 100 µM

Here is the next molecule: COc1ccc(OC)c(N(CN2C(=O)CCC2C(=O)O)C(C)=O)c1 (stereo not drawn)
> 100 µM

Here is the next molecule: `N[C@H](C(=O)O)[C@@H]1CC(Br)=NO1`
> 100 µM

Here is the next molecule: `CCC(=O)C(CCN1CCC2(CCCc3ccccc32)CC1)(c1ccccc1)c1ccccc1`
5.78 µM

Here is the next molecule: `O=[N+]([O-])/C(C(Cl)=C(Cl)Cl)=C(/Cl)SCc1ccccc1`
4.32 µM

Here is the next molecule: `OC(C#Cc1ccccc1)(c1ccccc1)c1ccccc1`
> 100 µM

Here is the next molecule: CC1(C)CNCC(C)(OCc2ccccc2)C(=O)NC(C)(C)CNCC(C)(OCc2ccccc2)C(=O)N1 (stereo not drawn)
> 10 µM

Here is the next molecule: `CSC(=S)Nc1cccc(C)n1`
> 100 µM
